Species on record: Oryctolagus cuniculus
assay comment: Compound was tested for functional antagonism of angiotensin-II induced contraction in isolated rabbit aorta
Mark Criterion not met for Kb values under 10 nM, and Criterion met for everything at or above.

compound structure string: CCCSC1=NS(=O)(=O)c2ccccc2N1Cc1ccc(-c2ccccc2C(=O)O)cc1
discrete label: Criterion met

compound structure string: CCCCc1nc(Cl)c(CO)n1Cc1ccc(-c2ccccc2-c2nnn[nH]2)cc1
discrete label: Criterion not met

compound structure string: CCCSC1=NS(=O)(=O)c2cc(C)cnc2N1Cc1ccc(-c2ccccc2-c2nn[nH]n2)cc1
discrete label: Criterion met

compound structure string: CCCSC1=Nc2ccccc2S(=O)(=O)N1Cc1ccc(-c2ccccc2-c2nn[nH]n2)cc1
discrete label: Criterion met

compound structure string: CCCSC1=NS(=O)(=O)c2ccccc2N1Cc1ccc(-c2ccccc2-c2nn[nH]n2)cc1
discrete label: Criterion met

compound structure string: CCSC1=NS(=O)(=O)c2cc(C)cnc2N1Cc1ccc(-c2ccccc2-c2nn[nH]n2)cc1
discrete label: Criterion not met

compound structure string: CCCSC1=NS(=O)(=O)c2ccc(C(=O)O)cc2N1Cc1ccc(-c2ccccc2-c2nn[nH]n2)cc1
discrete label: Criterion not met

compound structure string: CCCSC1=Nc2ccccc2S(=O)(=O)N1Cc1ccc(-c2ccccc2C(=O)O)cc1
discrete label: Criterion met

compound structure string: CCCCC1=Nc2ccccc2S(=O)(=O)N1Cc1ccc(-c2ccccc2C(=O)O)cc1
discrete label: Criterion met

compound structure string: CCCCC1=NS(=O)(=O)c2ccccc2N1Cc1ccc(-c2ccccc2C(=O)O)cc1
discrete label: Criterion met

Origin of measurements: ChEMBL document CHEMBL1126235
